Entry source: patent US20250195521A1

# testedTarget: K-Ras G12C(GMP-PNP) binding to BRAF RBD (Homo sapiens (Human), UniProt P01116+P62937, G12C)
# Sequence (P01116 other isoform, or with tags, fused parts or gaps G12C, one chain of several): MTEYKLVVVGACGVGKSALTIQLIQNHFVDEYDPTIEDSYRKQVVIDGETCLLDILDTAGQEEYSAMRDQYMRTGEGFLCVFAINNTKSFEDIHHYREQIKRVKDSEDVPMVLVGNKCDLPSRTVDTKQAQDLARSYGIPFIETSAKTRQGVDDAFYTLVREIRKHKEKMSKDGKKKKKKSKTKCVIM
# assayProtocol: Disruption of BRAF RBD interaction with K-Ras (FRET / MOA assay), K-Ras G12C
# Format: biochemical
# testSettings: read-out: KRAS G12C FRET IC50
# Source text: Note—The following protocol describes a procedure for monitoring disruption of K-Ras G12C(GMP-PNP) binding to BRAF^RBD by a compound of the invention. This protocol may also be executed substituting other Ras proteins or nucleotides. […]
Each entry below lists one item and its recorded IC50 value.

Below, 3 compounds whose answers are already recorded.
# compound, IC50
measured = [
    ("CCn1c(-c2cccnc2[C@H](C)OC)c2c3cc(ccc31)-c1csc(n1)C[C@H](NC(=O)[C@H](C(C)C)N(C)C(=O)C1CCN(C(=O)/C=C/CN(C)C)C3(CC3)C1)C(=O)N1CCC[C@H](N1)C(=O)OCC(C)(C)C2 (stereo partly shown)", "10 to 100 nM"),
    ("CCO[C@@H]1c2nc(cs2)-c2ccc3c(c2)c(c(-c2cccnc2[C@H](C)OC)n3CC)CC(C)(C)COC(=O)[C@@H]2CCCN(N2)C(=O)[C@H]1NC(=O)[C@H]1[C@H](C)[C@@H]1c1cn(C)cn1", "100 to 1000 nM"),
    ("CCn1c(-c2cccnc2[C@H](C)OC)c2c3cc(ccc31)-c1csc(n1)C[C@H](NC(=O)[C@H](C(C)C)N(C)C(=O)N(C)C[C@H]1CCCN1C)C(=O)N1CCC[C@H](N1)C(=O)OCC(C)(C)C2", "100 to 1000 nM"),
]

Turning now to a further compound:
(Q) Requested field: IC50. Item: CCn1c(-c2cccnc2[C@H](C)OC)c2c3cc(ccc31)-c1csc(n1)C[C@H](NC(=O)[C@H](C(C)C)N(C)C(=O)N1CC(N3CCC3)C1)C(=O)N1CCC[C@H](N1)C(=O)OCC(C)(C)C2
(A) 10 to 100 nM

---

# testedTarget: NRAS Q61R (Homo sapiens (Human), UniProt P01111+P62937, Q61R)
# Sequence (P01111 whole entry Q61R): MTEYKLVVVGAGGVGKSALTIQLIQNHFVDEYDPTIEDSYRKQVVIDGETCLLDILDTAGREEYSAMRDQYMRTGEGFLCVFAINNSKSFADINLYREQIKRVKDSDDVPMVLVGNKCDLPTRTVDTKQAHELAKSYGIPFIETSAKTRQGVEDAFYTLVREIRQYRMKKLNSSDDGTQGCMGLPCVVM
# Sequence (P62937 whole entry): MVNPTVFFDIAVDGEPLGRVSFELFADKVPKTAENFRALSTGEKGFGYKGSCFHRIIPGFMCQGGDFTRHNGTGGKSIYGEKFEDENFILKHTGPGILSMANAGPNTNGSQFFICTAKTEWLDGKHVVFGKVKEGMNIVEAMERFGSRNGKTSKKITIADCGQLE
# assayProtocol: Ras-Raf disruption/FRET/MOA assay (BRAF RBD, Cyclophilin A)
# Assay type: biochemical
# Procedure: Compound is present in plate wells as a 10-point 3-fold dilution series starting at a final concentration of 30 μM. After incubation at 25° C. for 3 hours, a mixture of Anti-His Eu—W1024 and anti-GST allophycocyanin is then added to assay sample wells at final concentrations of 10 nM and 50 nM, respectively, and the reaction incubated for an additional 1.5 hours. […]
measurementLabel: IC50

Please review the following examples before continuing.
# compound, testedTarget, IC50
records = [
    ("CCn1c(-c2cccnc2[C@H](C)OC)c2c3cc(ccc31)-c1csc(n1)C[C@H](NC(=O)[C@H](C(C)C)N(C)C(=O)N1CCC1C(=O)O)C(=O)N1CCC[C@H](N1)C(=O)OCC(C)(C)C2 (stereo partly drawn) [Compound A271]", "NRAS Q61R (Homo sapiens (Human), UniProt P01111+P62937, Q61R)", "1000 to 10000 nM"),
    ("CCn1c(-c2cccnc2[C@H](C)OC)c2c3cc(ccc31)-c1csc(n1)C[C@H](NC(=O)[C@H](C(C)C)N(C)C(=O)N1CC[C@@]3(CCNC3=O)C1)C(=O)N1CCC[C@H](N1)C(=O)OCC(C)(C)C2 [Compound A480]", "NRAS Q61R (Homo sapiens (Human), UniProt P01111+P62937, Q61R)", "100 to 1000 nM"),
    ("CCn1c(-c2cccnc2[C@H](C)OC)c2c3cc(ccc31)-c1csc(n1)C[C@H](NC(=O)[C@H](C(C)C)N(C)C(=O)N1CC(O)(COC)C1)C(=O)N1CCC[C@H](N1)C(=O)OCC(C)(C)C2 [Compound A553]", "NRAS Q61R (Homo sapiens (Human), UniProt P01111+P62937, Q61R)", "100 to 1000 nM"),
    ("CCn1c(-c2cccnc2[C@H](C)OC)c2c3cc(ccc31)-c1csc(n1)C[C@H](NC(=O)C1(F)CC1)C(=O)N1CCC[C@H](N1)C(=O)OCC(C)(C)C2 [Compound A362]", "NRAS Q61R (Homo sapiens (Human), UniProt P01111+P62937, Q61R)", "1000 to 10000 nM"),
    ("CCn1c(-c2cc(N3CCN(C)CC3)cnc2[C@H](C)OC)c2c3cc(ccc31)-c1csc(n1)C[C@H](NC(=O)[C@H](C(C)C)N(C)C(=O)C1OCC[C@@H]1c1ccccc1)C(=O)N1CCC[C@H](N1)C(=O)OCC(C)(C)C2 (stereo partly drawn) [Compound A583]", "NRAS Q61R (Homo sapiens (Human), UniProt P01111+P62937, Q61R)", "10 to 100 nM"),
    ("CCn1c(-c2cccnc2[C@H](C)OC)c2c3cc(ccc31)-c1csc(n1)C[C@H](NC(=O)[C@H](C(C)C)N(C)C(=O)N1CC(C(C)(C)O)C1)C(=O)N1CCC[C@H](N1)C(=O)OCC(C)(C)C2 [Compound A289]", "NRAS Q61R (Homo sapiens (Human), UniProt P01111+P62937, Q61R)", "100 to 1000 nM"),
]

(Q) Which IC50 value is on record for CCn1c(-c2cccnc2[C@H](C)OC)c2c3cc(ccc31)-c1csc(n1)C[C@H](NC(=O)[C@H](C(C)C)N(C)C(=O)N1CCC[C@H]1c1ccccc1)C(=O)N1CCC[C@H](N1)C(=O)OCC(C)(C)C2 [Compound A599] ?
(A) 1000 to 10000 nM

(Q) And CCn1c(-c2cccnc2[C@H](C)OC)c2c3cc(ccc31)-c1csc(n1)C[C@H](NC(=O)[C@H](C(C)C)N(C)C(=O)N(C)C1(C)COC1)C(=O)N1CCC[C@H](N1)C(=O)OCC(C)(C)C2 [Compound A527] ?
(A) 100 to 1000 nM

(Q) And what about the compound CCn1c(-c2cccnc2[C@H](C)OC)c2c3cc(ccc31)-c1csc(n1)C[C@H](NC(=O)[C@H](C(C)C)N(C)C(=O)N1CCN(C(=O)[C@@H]3CCCN3C)CC1)C(=O)N1CCC[C@H](N1)C(=O)OCC(C)(C)C2 [Compound A596] ?
(A) 100 to 1000 nM

---

IC50 by entry:
# Tested on: NCI-H358 cells (K-Ras G12C)
# assayProtocol: CellTiter-Glo cell viability, NCI-H358
# Assay type: cell-based, human
# testSettings: Homo sapiens, NCI-H358, 120 h, K-Ras G12C, 5-day treatment; read-out: H358 Cell Viability IC50

Below, each entry is followed by its recorded IC50 result.
# cpdSmiles, reported
data = [
    ("CCn1c(-c2cccnc2[C@H](C)OC)c2c3cc(ccc31)-c1csc(n1)C[C@H](NC(=O)[C@H](C(C)C)N(C)C(=O)N1CCCC3(CN(C)C3)C1)C(=O)N1CCC[C@H](N1)C(=O)OCC(C)(C)C2", "0.01 to 0.1 µM"),
    ("CCn1c(-c2cccnc2[C@H](C)OC)c2c3cc(ccc31)-c1csc(n1)C[C@H](NC(=O)N1CC[C@@H]1COC)C(=O)N1CCC[C@H](N1)C(=O)OCC(C)(C)C2", "0.1 to 1 µM"),
    ("CCn1c(-c2cccnc2[C@H](C)OC)c2c3cc(ccc31)-c1csc(n1)C[C@H](NC(=O)[C@H](C(C)C)N(C)C(=O)N1CCC[C@@H](N(C)C)C1)C(=O)N1CCC[C@H](N1)C(=O)OCC(C)(C)C2", "0.01 to 0.1 µM"),
    ("CCn1c(-c2cccnc2[C@H](C)OC)c2c3cc(ccc31)-c1csc(n1)C[C@H](NC(=O)C1(F)CCC1)C(=O)N1CCC[C@H](N1)C(=O)OCC(C)(C)C2", "0.1 to 1 µM"),
]

Let us examine a further case.
(Q) Tell me the measured IC50 of CCn1c(-c2cnccc2COC)c2c3cc(ccc31)-c1cc(O)cc(c1)C[C@H](NC(=O)[C@H](C(C)C)N(C)C(=O)[C@H]1CCN(C(=O)C(C)(C)N)C1)C(=O)N1CCC[C@H](N1)C(=O)OCC(C)(C)C2 , please.
(A) 1 to 10 µM

---

# testedTarget: KRAS G13D (Homo sapiens (Human), UniProt P01116+P62937, G13D)
# Sequence (P01116 other isoform, or with tags, fused parts or gaps G13D, one chain of several): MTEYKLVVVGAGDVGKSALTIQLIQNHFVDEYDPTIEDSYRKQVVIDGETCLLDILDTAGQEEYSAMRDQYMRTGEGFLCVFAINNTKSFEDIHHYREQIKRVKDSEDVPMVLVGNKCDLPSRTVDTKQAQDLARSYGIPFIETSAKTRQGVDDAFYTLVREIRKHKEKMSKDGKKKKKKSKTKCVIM
# assayProtocol: Ras-Raf disruption/FRET/MOA assay (BRAF RBD, Cyclophilin A)
# Format: biochemical
# testSettings: read-out: KRAS G13D FRET data IC50
Recorded IC50, one value per entry.

Here is how some compounds turned out for IC50.
# compound, IC50
data = [
    ("CCn1c(-c2cccnc2[C@H](C)OC)c2c3cc(ccc31)-c1csc(n1)C[C@H](NC(=O)[C@H](C(C)C)N(C)C(=O)N1CCOCC13COC3)C(=O)N1CCC[C@H](N1)C(=O)OCC(C)(C)C2 [Compound A474]", "1 to 10 µM"),
    ("CCN(CC)C(=O)N(C)[C@H](C(=O)N[C@H]1Cc2nc(cs2)-c2ccc3c(c2)c(c(-c2cccnc2[C@H](C)OC)n3CC)CC(C)(C)COC(=O)[C@@H]2CCCN(N2)C1=O)C(C)C [Compound A351]", "0.1 to 1 µM"),
    ("CCn1c(-c2cnccc2COC)c2c3cc(ccc31)-c1cc(O)cc(c1)C[C@H](NC(=O)[C@H](C(C)C)N(C)C(=O)[C@H]1CCN(C[C@@H](C)O)C1)C(=O)N1CCC[C@H](N1)C(=O)OCC(C)(C)C2 [Compound A31]", "0.1 to 1 µM"),
    ("CCn1c(-c2cccnc2[C@H](C)OC)c2c3cc(ccc31)-c1csc(n1)C[C@H](NC(=O)[C@H](C(C)C)N(C)C(=O)N1C[C@@H](C)N(C)C[C@@H]1C)C(=O)N1CCC[C@H](N1)C(=O)OCC(C)(C)C2 [Compound A292]", "1 to 10 µM"),
]

Now take the following compound into account.
(Q) What value of measured IC50 is listed for CCn1c(-c2cccnc2[C@H](C)OC)c2c3cc(ccc31)-c1cc(O)cc(c1)C[C@H](NC(=O)[C@H](C(C)C)N(C)C(=O)C1(F)CC1)C(=O)N1CCC[C@H](N1)C(=O)OCC(C)(C)C2 [Compound A165] ?
(A) 0.01 to 0.1 µM
